Field: furin cleavage Z-score. Provide a value for each of the sequences that follow.
# experimental.system: furin, P09958;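 also: purified furin at 1:10 enzyme:substrate in 50 mM HEPES pH 7.5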
# Sequence (P09958 whole entry): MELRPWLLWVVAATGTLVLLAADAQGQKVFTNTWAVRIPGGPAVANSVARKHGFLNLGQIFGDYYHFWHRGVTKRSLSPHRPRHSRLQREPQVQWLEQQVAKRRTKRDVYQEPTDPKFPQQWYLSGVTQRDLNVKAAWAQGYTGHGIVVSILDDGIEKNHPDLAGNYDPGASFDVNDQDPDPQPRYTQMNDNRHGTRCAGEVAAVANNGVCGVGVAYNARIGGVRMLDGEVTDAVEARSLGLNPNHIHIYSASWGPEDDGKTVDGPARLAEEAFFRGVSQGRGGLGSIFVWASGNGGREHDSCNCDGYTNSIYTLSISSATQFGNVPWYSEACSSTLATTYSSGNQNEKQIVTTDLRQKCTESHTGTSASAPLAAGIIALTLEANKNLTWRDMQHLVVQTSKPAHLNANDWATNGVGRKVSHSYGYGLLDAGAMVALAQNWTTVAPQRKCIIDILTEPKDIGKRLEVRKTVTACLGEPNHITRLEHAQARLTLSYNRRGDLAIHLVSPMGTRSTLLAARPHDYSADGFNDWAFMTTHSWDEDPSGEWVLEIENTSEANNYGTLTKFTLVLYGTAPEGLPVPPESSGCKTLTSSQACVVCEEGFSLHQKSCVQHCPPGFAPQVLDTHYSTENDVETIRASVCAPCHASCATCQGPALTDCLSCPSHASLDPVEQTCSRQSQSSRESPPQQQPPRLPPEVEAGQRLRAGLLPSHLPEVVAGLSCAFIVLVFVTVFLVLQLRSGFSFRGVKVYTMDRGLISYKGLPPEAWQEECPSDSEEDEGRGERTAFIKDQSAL
# protocol.notes: furin cleavage Z-score vs untreated control; higher = more cleavage, active = 3.5 or more, inactive = 1 or less, 8 variable residues between constant flanks
# setup.conditions: 7.5 min
The other results are listed elsewhere or left out. How many sequences the whole screen found active is unknown.
Number, no unit, nothing else.

// lookup furin cleavage Z-score for CARNRRGAITAGNASASA [FS-1912]
5.06

// lookup furin cleavage Z-score for CARNRRALRDAGNASASA [FS-3010]
7.62

// lookup furin cleavage Z-score for CARKKKCKICAGNASASA [FS-2689]
-0.917

// lookup furin cleavage Z-score for CATALNCNDSAGNASASA [HC373]
-0.291

// lookup furin cleavage Z-score for CAREDRGAYTAGNASASA [FS-2909]
-0.191

// lookup furin cleavage Z-score for CARCDRDNTEAGNASASA [FS-2896]
-0.96

// lookup furin cleavage Z-score for CAEFPCHRPSAGNASASA [HC2327]
-0.796
